Provenance of the data: PubChem BioAssay

- Run description: viability loss in pontine glioma line – cell-based, SU-DIPG-XXV, MIPE5.0, CellTiter-Glo, qHTS, dose response (AID 1347065);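 further: cells exposed to compound for 48 hours before ATP readout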
- Reported conditions: CellTiter-Glo ATP luminescence
Results filed as inconclusive are left out. Active and inactive are the calls of the source. Cut-off not given; nearly all actives show AC50 up to about 26 µM. Where a SMILES comes first, the peptide text is derived from it. [ ]: non-standard residue; d: D form. The star is where a group is joined. Sta = CC(C)C[C@H](N)[C@@H](O)CC(=O)O; Isovaleryl = CC(C)CC(=O)*
Output constraint: value belongs to label 1 for active, label 0 for inactive

What is the recorded call for this molecule in the test? `CN(N=O)C(=O)N[C@@H]1[C@@H](O)[C@H](O)[C@@H](CO)O[C@@H]1O`
label 0

What is the recorded call for this molecule in the test? `N#Cc1c(N(CC(=O)O)CC(=O)O)sc(C(=O)O)c1CC(=O)O`
label 0

What is the recorded call for this molecule in the test? `COc1cc([C@@H]2c3cc4c(cc3[C@@H](O[C@@H]3O[C@@H]5CO[C@@H](c6cccs6)O[C@H]5[C@H](O)[C@H]3O)[C@H]3COC(=O)[C@H]23)OCO4)cc(OC)c1O`
label 1

What is the recorded call for this molecule in the test? `CC(C)(O)CC[C@@H](O)[C@](C)(O)[C@H]1CC[C@@]2(O)C3=CC(=O)[C@@H]4C[C@@H](O)[C@@H](O)C[C@]4(C)[C@H]3CC[C@]12C`
label 0

What is the recorded call for this molecule in the test? `C1COC(NC(C2CC2)C2CC2)=N1`
label 0

What is the recorded call for this molecule in the test? CC(C)CC(=O)N[C@H](C(=O)N[C@H](C(=O)N[C@@H](CC(C)C)[C@@H](O)CC(=O)N[C@@H](C)C(=O)N[C@@H](CC(C)C)[C@@H](O)CC(=O)O)C(C)C)C(C)C (Isovaleryl-VV[Sta]A[Sta]-OH)
label 0

What is the recorded call for this molecule in the test? OC(CCN1CCCCC1)(c1ccccc1)C1CC2C=CC1C2 (centres undefined)
label 0

What is the recorded call for this molecule in the test? `Clc1ccc(Nc2nnc(Cc3ccncc3)c3ccccc23)cc1`
label 1

What is the recorded call for this molecule in the test? `CN(C)C(=O)COC(=O)Cc1ccc(OC(=O)c2ccc(N=C(N)N)cc2)cc1`
label 0
